- target.or.system: Kras and SOS1 (biotin-tagged human Kras loaded with GDP, His-tagged human SOS1) (Homo sapiens, UniProt P01116, G12D)
- Construct: made in house; host or cells: E. coli (stated for Kras only)
- Sequence (P01116 1-188 isoform P01116-2 G12D): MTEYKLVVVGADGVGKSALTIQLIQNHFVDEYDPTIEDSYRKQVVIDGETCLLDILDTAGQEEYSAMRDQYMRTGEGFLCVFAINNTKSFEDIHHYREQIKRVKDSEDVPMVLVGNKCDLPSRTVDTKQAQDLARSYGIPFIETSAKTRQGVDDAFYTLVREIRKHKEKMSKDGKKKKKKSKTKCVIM
- method: Protein-protein interaction inhibition between Kras and SOS1 (KrasGl2D-SOS PPI) using AlphaScreen
- Type: binding
- conditions.used: AlphaScreen; biotin-tagged human Kras loaded with GDP, His-tagged human SOS1; read-out: KRAS G12D-SOS PPI IC50
Starred links: 1 amine or outer side, 2 acyl side, 3 side chain; linkers in the order of their positions; H or OH if unused. Positions of bridges follow the written chain, without caps; N, C: chain ends. Non-standard residues stand in square brackets, D forms with d. Residues, ends and D or L forms follow the SMILES beside them. *: point of attachment. hPhe(3,5-F2-4-CF3) = N[C@@H](CCc1cc(F)c(C(F)(F)F)c(F)c1)C(=O)O; hPhe(3-Cl-4-CF3) = N[C@@H](CCc1ccc(C(F)(F)F)c(Cl)c1)C(=O)O; NMeAla(4-thiazolyl) = CN[C@@H](Cc1cscn1)C(=O)O; NMePhe(4-Cl) = CN[C@@H](Cc1ccc(Cl)cc1)C(=O)O; X55 = C[C@@](Cc1cccc(I)c1)(N[*:1])C(=O)[*:2]; NMedβ3hAla = C[C@H](CC(=O)[*:2])N(C)[*:1]; X31 = O=C([C@H](Cc1ccc(Cl)s1)N[*:1])[*:2]; NMeGly(cPent) = CN[C@H](C(=O)O)C1CCCC1; Pro(4,4-F2) = O=C(O)[C@@H]1CC(F)(F)CN1; NMeY = CN[C@@H](Cc1ccc(O)cc1)C(=O)O; NMeCha = CN[C@@H](CC1CCCCC1)C(=O)O; NMeChg = CN[C@H](C(=O)O)C1CCCCC1; NMeT = CN[C@H](C(=O)O)[C@@H](C)O; NMeD = CN[C@@H](CC(=O)O)C(=O)O; NMeL = CN[C@@H](CC(C)C)C(=O)O; hLeu = CC(C)CC[C@H](N)C(=O)O; NMeV = CN[C@H](C(=O)O)C(C)C; d(β3hA) = C[C@@H](N)CC(=O)O; NMeA = CN[C@@H](C)C(=O)O; NMeAib = CNC(C)(C)C(=O)O; Nle = CCCC[C@H](N)C(=O)O; Piperidide = C1CCN(*)CC1; Pyrrolidide = C1CCN(*)C1; dNMeA = CN[C@H](C)C(=O)O; Ac5c = NC1(C(=O)O)CCCC1; Aze = O=C(O)[C@@H]1CCN1; Ac4c = NC1(C(=O)O)CCC1; CF3 = FC(F)(F)*; Sar = CNCC(=O)O

compound	IC50 [nM]
CC[C@H](C)[C@@H]1NC(=O)[C@H](CC(C)C)N(C)C(=O)C[C@@H](C(=O)N(C)C)N(C)C(=O)[C@H](C2CCCC2)N(C)C(=O)C2(CCCC2)NC(=O)[C@H](Cc2cscn2)N(C)C(=O)[C@H](CCc2ccc(C(F)(F)F)c(Cl)c2)NC(=O)CN(C)C(=O)[C@H](CC2CCCCC2)N(C)C(=O)[C@@H]2CCN2C(=O)[C@H](C)N(C)C1=O [Compound 384] ([NMeL]I[NMeA][Aze][NMeCha][Sar][hPhe(3-Cl-4-CF3)][NMeAla(4-thiazolyl)][Ac5c][NMeGly(cPent)][NMeD]-NMe2; lactam N-11)	1
CC[C@H](C)[C@@H]1NC(=O)[C@H](CC(C)C)N(C)C(=O)C[C@@H](C(=O)N2CCCCC2)N(C)C(=O)[C@H](C2CCCCC2)N(C)C(=O)C2(CCCC2)NC(=O)[C@@H]2CCCN2C(=O)[C@H](CCc2ccc(C(F)(F)F)c(Cl)c2)NC(=O)CN(C)C(=O)[C@H]([C@@H](C)OC)N(C)C(=O)CN(C)C(=O)CN(C)C1=O [Compound 1072] ([NMeL]I[Sar][Sar][NMeT](Me)[Sar][hPhe(3-Cl-4-CF3)]P[Ac5c][NMeChg][NMeD]-Piperidide; lactam N-11)	1.2
CC[C@H](C)[C@@H]1NC(=O)[C@H](CC(C)C)N(C)C(=O)C[C@@H](C)N(C)C(=O)[C@H](C(C)C)N(C)C(=O)C2(CCCC2)NC(=O)[C@@H]2CCCN2C(=O)[C@H](CCc2ccc(C(F)(F)F)c(Cl)c2)NC(=O)CN(C)C(=O)[C@H](Cc2ccc(OC(F)(F)F)cc2)N(C)C(=O)CN(C)C(=O)CN(C)C1=O [Compound 1563] (cyclo([Ac5c][NMeV][NMedβ3hAla][NMeL]I[Sar][Sar][NMeY](CF3)[Sar][hPhe(3-Cl-4-CF3)]P))	6.2
CCCC[C@@H]1NC(=O)[C@H](Cc2ccc(Cl)s2)NC(=O)CN(C)C(=O)[C@H](Cc2ccc(Cl)cc2)N(C)C(=O)CN(C)C(=O)CN(C)C(=O)[C@H]([C@@H](C)CC)NC(=O)[C@H](CC(C)C)N(C)C(=O)C[C@@H](C(=O)N2CCCCC2)N(C)C(=O)[C@H](CC(C)C)NC(=O)C(C)(C)N(C)C1=O [Compound 1318] ([NMeL]I[Sar][Sar][NMePhe(4-Cl)][Sar][X31][Nle][NMeAib]L[NMeD]-Piperidide; lactam N-11)	78
CC[C@H](C)[C@@H]1NC(=O)[C@H](CC(C)C)N(C)C(=O)C[C@@H](C(=O)N2CCCC2)N(C)C(=O)[C@H](C2CCCCC2)N(C)C(=O)C2(CCC2)NC(=O)[C@@H]2CC(F)(F)CN2C(=O)[C@H](CCc2cc(F)c(C(F)(F)F)c(F)c2)NC(=O)CN(C)C(=O)[C@H](CC2CCCCC2)N(C)C(=O)CN(C)C(=O)CN(C)C1=O [Compound 1192] ([NMeL]I[Sar][Sar][NMeCha][Sar][hPhe(3,5-F2-4-CF3)][Pro(4,4-F2)][Ac4c][NMeChg][NMeD]-Pyrrolidide; lactam N-11)	0.39
CC[C@H](C)[C@@H]1NC(=O)[C@H](C)N(C)C(=O)C[C@@H](C)NC(=O)[C@H](C2CCCC2)N(C)C(=O)C2(CCCC2)NC(=O)[C@@H]2CCCN2C(=O)[C@H](CCc2ccc(C(F)(F)F)c(Cl)c2)NC(=O)[C@@H](C)N(C)C(=O)[C@H](CC(C)C)N(C)C(=O)[C@@H]2CCN2C(=O)[C@H](C)N(C)C1=O [Compound 98] (cyclo([Ac5c][NMeGly(cPent)][d(β3hA)][NMeA]I[NMeA][Aze][NMeL][dNMeA][hPhe(3-Cl-4-CF3)]P))	68
CC[C@H](C)[C@@H]1NC(=O)[C@H](CC(C)C)N(C)C(=O)C[C@@H](C(=O)N2CCCC2)N(C)C(=O)[C@H](C2CCCCC2)N(C)C(=O)C2(CCC2)NC(=O)[C@@H]2CCCN2C(=O)[C@H](CCc2ccc(C(F)(F)F)c(Cl)c2)NC(=O)CN(C)C(=O)[C@H](CC2CCCCC2)N(C)C(=O)CN(C)C(=O)CN(C)C1=O [Compound 1894] ([NMeL]I[Sar][Sar][NMeCha][Sar][hPhe(3-Cl-4-CF3)]P[Ac4c][NMeChg][NMeD]-Pyrrolidide; lactam N-11)	0.55
CC(C)CC[C@@H]1NC(=O)[C@H](CC(C)C)N(C)C(=O)C[C@@H](C(=O)N2CCCCC2)N(C)C(=O)[C@H](C2CCCCC2)N(C)C(=O)C2(CCCC2)NC(=O)[C@@H]2CCCN2C(=O)[C@H](CCc2ccc(C(F)(F)F)c(Cl)c2)NC(=O)CN(C)C(=O)[C@H](CC2CCCCC2)N(C)C(=O)CN(C)C(=O)CN(C)C1=O [Compound 1651] ([NMeL][hLeu][Sar][Sar][NMeCha][Sar][hPhe(3-Cl-4-CF3)]P[Ac5c][NMeChg][NMeD]-Piperidide; lactam N-11)	4.9
CCCC[C@@H]1NC(=O)[C@](C)(Cc2cccc(I)c2)NC(=O)CN(C)C(=O)[C@H](Cc2ccc(Cl)cc2)N(C)C(=O)CN(C)C(=O)CN(C)C(=O)[C@H]([C@@H](C)CC)NC(=O)[C@H](CC(C)C)N(C)C(=O)C[C@@H](C(=O)N2CCCCC2)N(C)C(=O)[C@H](CC(C)C)NC(=O)C(C)(C)N(C)C1=O [Compound 1202] ([NMeL]I[Sar][Sar][NMePhe(4-Cl)][Sar][X55][Nle][NMeAib]L[NMeD]-Piperidide; lactam N-11)	240

====

Measured IC50 by item
- target.or.system: Kras and SOS1 (biotin-tagged human Kras loaded with GDP, His-tagged human SOS1) (Homo sapiens, UniProt P01116, G12D)
- Construct: made in house; host or cells: E. coli (stated for Kras only)
- method: Protein-protein interaction inhibition between Kras and SOS1 (KrasGl2D-SOS PPI) using AlphaScreen
- Format: binding
- conditions.used: AlphaScreen; biotin-tagged human Kras loaded with GDP, His-tagged human SOS1; read-out: KRAS G12D-SOS PPI IC50
Positions of bridges follow the written chain, without caps; N, C: chain ends. Non-standard residues stand in square brackets, D forms with d. Residues, ends and D or L forms follow the SMILES beside them. *: point of attachment. hPhe(3-Cl-4-CF3) = N[C@@H](CCc1ccc(C(F)(F)F)c(Cl)c1)C(=O)O; NMeGly(cPent) = CN[C@H](C(=O)O)C1CCCC1; NMeCha = CN[C@@H](CC1CCCCC1)C(=O)O; NMeD = CN[C@@H](CC(=O)O)C(=O)O; NMeL = CN[C@@H](CC(C)C)C(=O)O; NMeV = CN[C@H](C(=O)O)C(C)C; d(β3hA) = C[C@@H](N)CC(=O)O; dNMeS = CN[C@H](CO)C(=O)O; NMeA = CN[C@@H](C)C(=O)O; Piperidide = C1CCN(*)CC1; Ac5c = NC1(C(=O)O)CCCC1; Aze = O=C(O)[C@@H]1CCN1; Isopentyl = CC(C)CC*; Sar = CNCC(=O)O

compound	IC50 [µM]
CC[C@H](C)[C@@H]1NC(=O)[C@H](C)N(C)C(=O)C[C@@H](C)NC(=O)[C@H](C(C)C)N(C)C(=O)C2(CCCC2)NC(=O)[C@@H]2CCCN2C(=O)[C@H](CCc2ccc(C(F)(F)F)c(Cl)c2)NC(=O)[C@H]2CCCN2C(=O)[C@H](CC2CCCCC2)N(C)C(=O)[C@@H]2CCN2C(=O)CN(C)C1=O [Compound 77] (cyclo([Ac5c][NMeV][d(β3hA)][NMeA]I[Sar][Aze][NMeCha][dP][hPhe(3-Cl-4-CF3)]P))	0.1
CC[C@H](C)[C@@H]1NC(=O)[C@H](CC(C)C)N(C)C(=O)C[C@@H](C(=O)N2CCCCC2)N(C)C(=O)[C@H](C2CCCC2)N(C)C(=O)C2(CCCC2)NC(=O)[C@@H](COCCC(C)C)N(C)C(=O)[C@H](CCc2ccc(C(F)(F)F)c(Cl)c2)NC(=O)CN(C)C(=O)[C@H](CC2CCCCC2)N(C)C(=O)CN(C)C(=O)CN(C)C1=O [Compound 1440] ([NMeL]I[Sar][Sar][NMeCha][Sar][hPhe(3-Cl-4-CF3)][dNMeS](Isopentyl)[Ac5c][NMeGly(cPent)][NMeD]-Piperidide; lactam N-11)	0.016

All figures here come from patent US12371454B2.
